Reference source: PubChem BioAssay (NCI)

- System: OVCAR-4 ovarian
- MEASUREMENT_PROTOCOL: NCI tumour cell line growth inhibition, 48 h
ENDPOINT_NAME: TGI

Example cases with answers are listed next.
COc1ccc(C2SC(N)=Nc3c2c(C)nn3C(=O)c2ccccc2O)cc1OC (centres undefined) = > 10 µM
CCCCN1C(=O)C2Cc3c([nH]c4ccccc34)C(c3cccc(O)c3)N2C1=O (centres undefined) = 34.6 µM
COc1cc2c(cc1OC(C)C)[C@H](c1ccc(Cl)cc1)N(c1ccc(N(C)CC3CCC(N4CCN(C)C(=O)C4)CC3)cc1)C(=O)C2 (some centres undefined) = 9.85 µM
NC(=O)C1CCCN1C(=O)C(Cc1cnc[nH]1)NC(=O)C1CCCC1 (centres undefined) = > 100 µM
CN(CCS(=O)(=O)N1C(=O)C2CCCN2C(=O)[C@@H]1Cc1ccccc1)C(=O)OCc1ccccc1 (some centres undefined) = > 100 µM
CNC(=O)c1ccc(N2C(=S)N(c3cnc(C#N)c(C(F)(F)F)c3)C(=O)C23CCC3)cc1F = > 100 µM

# get_value(readout='TGI', item= CC(C)(C)C1=CC(=C(P(=O)(O)O)P(=O)(O)O)C=C(C(C)(C)C)C1=O )
> 50 µM

Queued: O=C(Nc1ccccc1)c1cc(S(=O)(=O)Nc2n[nH]c(=O)n2-c2ccccc2)c(S)cc1Cl
> 100 µM

And C/C(=N\N=C(N)N)C(CN1CCCCC1)C(c1ccccc1)c1c(O)c2ccccc2oc1=O (centres undefined) ?
> 100 µM

---

Here the recorded GI50 is given for each entry.
- Test system: SK-OV-3 ovarian
- MEASUREMENT_PROTOCOL: NCI tumour cell line growth inhibition, 48 h

Worked cases, GI50 given:
O=C1N[C@@H]2[C@@H](O)[C@@H](O)[C@H](O)C[C@H]2c2cc3c(c(O)c21)OCCO3 = 0.496 µM
Fc1ccc(-c2c(-c3ccncc3)nc3n2CCS3)cc1 = > 25 µM
O=C(NCCCCN1CCOCC1)c1cc2ccccc2o1 = > 100 µM
Cc1cc2nc(NCCN)n(Cc3ccc(F)c(Cl)c3)c2cc1C = 16.9 µM

Lab note: next molecule to report on.
Requested field: GI50. Item: COc1ccc(/C=C\c2cc(OC)c(OC)c(OC)c2)cc1OCC(=O)Nc1nc2ccc(F)cc2s1
8 µM

---

- Test system: M14 melanoma
- MEASUREMENT_PROTOCOL: NCI tumour cell line growth inhibition, 48 h
TGI reference

CCCCCCCCCCCCCCCC1=NCC[N+]1(CCO)CCO = 3.01 µM
CC(C)CC(NC(=O)C(C)(CI)Cc1ccccc1)C(=O)Nc1ccccc1 (stereo not given) = > 100 µM
CSc1nc(-c2ccc(Cl)cc2)c(C#N)c(=O)n1C1OC(COC(C)=O)C(OC(C)=O)C(OC(C)=O)C1OC(C)=O (stereo not given) = > 100 µM
CSc1ncnc2c1ncn2CCC(=O)O = > 100 µM

Below: the item to evaluate.
// query TGI value for entry CC1=NN(c2cccc(Cl)c2)C2(SCC(=O)N2c2nc3ccccc3s2)C1=CC=Cc1ccccc1 (stereo not given)
> 100 µM

---

- Tested on: DU-145 prostate
- MEASUREMENT_PROTOCOL: NCI tumour cell line growth inhibition, 48 h; in the data active = GI50 below about 0.43 µM; inactive = the rest
Reply using exactly one outcome from 1 (yes) (active), 0 (no) (inactive)

Before answering, review these 5 worked examples.
Nc1nc(/C=C\c2ccc([N+](=O)[O-])s2)nc(N2CCN(c3ccccc3)CC2)n1 = 0 (no)
C=C(c1ccc(OC)c(/C=C/C(=O)c2ccc3c(c2)OCO3)c1)c1cc(OC)c(OC)c(OC)c1 = 0 (no)
COc1ccc(C2(Cl)c3ccccc3N(c3ccccc3)c3ccccc32)cc1 = 0 (no)
NS(=O)(=O)OC[C@H]1C[C@@H](Nc2ccnc3cc(-c4cccc(SC(F)(F)F)c4)nn23)[C@H](O)[C@@H]1O = 1 (yes)
CC(C)(C)C(=O)OCOP(=O)(NCc1ccccc1)C1CCCN(O)C1=O (configuration not stated) = 0 (no)

Status in this test for COc1c/c(=C2\C=c3ccccc3=N2)[nH]/c1=C\c1[nH]c(C)cc1C ?
1 (yes)

Let us now turn to CC1Cc2c(Cl)ncnc2N(C)c2ccc(Cl)cc21 (configuration not stated)
0 (no)

---

- Tested on: DU-145 prostate
- MEASUREMENT_PROTOCOL: NCI tumour cell line growth inhibition, 48 h
ENDPOINT_NAME: TGI

These solved cases illustrate the format of a correct answer.
Cc1ccc2c(=O)cc(-c3sccc3C)[nH]c2n1 = > 67.3 µM
COc1cc2c(c(OC)c1OC)-c1ccc(OC)c(=O)cc1C(NC(=O)COc1ccccc1)CC2 (stereo not given) = < 0.01 µM
Clc1c(Cl)[n+](Cc2ccc3ccccc3c2)cn1Cc1ccc2ccccc2c1 = 3.01 µM
COc1ccc(Nc2nc3cc(N)cc(N)c3nc2-c2ccccc2)cc1 = > 100 µM

Request the reported TGI associated with N#CC(c1ccccc1)N(CCCCCCN(C(=O)c1ccccc1)C(C#N)c1ccccc1)C(=O)c1ccccc1 (stereo not given)
> 100 µM

---

- System: OVCAR-8 ovarian
- MEASUREMENT_PROTOCOL: NCI tumour cell line growth inhibition, 48 h; in the data active = GI50 below about 0.43 µM; inactive = the rest
Outcome (select one): 1 (active), 0 (inactive)

Sample answers from the record:
COc1ccc2c(c1)C(=O)c1c-2n(CCCN(C)C)c(=O)c2ccccc12 = 1
COc1c/c(=C2\C=c3ccccc3=N2)[nH]/c1=C\c1[nH]c(C)cc1C = 1
COc1ccc(/C=C\c2cc(OC)c(OC)c(OC)c2)cc1OCC(=O)Nc1nc2ccc(F)cc2s1 = 0

For O=C1NC(=C(Cl)Cl)/C(=N/S(=O)(=O)N2CCCCC2)N1 , which call appears in the assay record?
0

Here is the next molecule: Clc1c(Cl)[n+](Cc2ccc3ccccc3c2)cn1Cc1ccc2ccccc2c1
0

And for COc1cc2c(cc1OC(C)C)[C@H](c1ccc(Cl)cc1)N(c1ccc(N(C)CC3CCC(N4CCN(C)C(=O)C4)CC3)cc1)C(=O)C2 (some centres not stated) ?
0

Another molecule to check: Cc1cc2nc(NCCN)n(Cc3ccc(F)c(Cl)c3)c2cc1C
0

---

- Test system: U251 CNS
- MEASUREMENT_PROTOCOL: NCI tumour cell line growth inhibition, 48 h
Where a SMILES comes first, the peptide text is derived from it. The star is where a group is joined. Fmoc = O=C(OCC1c2ccccc2-c2ccccc21)*; OtBu = CC(C)(C)O*
ENDPOINT_NAME: TGI

Consider the following illustrative entries.
CCOC(=O)Cc1csc(NC(NC(=O)OCC)(C(=O)OCC)C(F)(F)F)n1 (centres undefined) = > 100 µM
COc1cc2cc(OC(C)=O)c3cc4c(cc3c2c(OC)c1OC)OCO4 = > 100 µM
C=CCC1(CN(C)C)CC/C(=C\c2ccc(OC)cc2)C1=O (centres undefined) = > 100 µM
COc1cc(/C=C/c2cc(/C=C/c3ccc(O)c(OC)c3)n(C(=O)c3ccc(Cl)cc3)n2)ccc1O = 11.6 µM
O=c1ccc2ccc(OP(=O)(O)O)cc2o1 = > 100 µM

Item: CC(C)C(NC(=O)OCC1c2ccccc2-c2ccccc21)C(=O)NC(CCC(=O)OC(C)(C)C)C(=O)OC(C)(C)C (centres undefined) (Fmoc-Val-Glu(OtBu)-OtBu; configuration not given here) Test system: U251 CNS Read-out: TGI Value: ?
> 100 µM

Would you mind doing CCc1ccc(Oc2c(-c3ccc(OCc4ccc(Cl)cc4)cc3O)n[nH]c2C(F)(F)F)cc1 as well?
3.22 µM

What would you report for COc1ccccc1/C=C/c1ccnc2ccccc12 ?
24.2 µM

Same lookup for CC(C)CC(NC(=O)C(C)(CI)Cc1ccccc1)C(=O)Nc1ccccc1 (centres undefined) , please.
> 100 µM

And what about the compound CC(=O)O[C@@H]1C[C@]2(C(=O)c3ccccc3)C(=O)C(=O)S[C@]12c1ccccc1 ?
> 100 µM

Note, next up: Cc1ccc(O)c(NC(=O)c2cccc(Nc3ccnc(C(F)(F)F)c3)c2)c1
37.6 µM

---

TGI: recorded values
- System: DU-145 prostate
- MEASUREMENT_PROTOCOL: NCI tumour cell line growth inhibition, 48 h

# count of solved cases: 4
C=CN(C(=O)N1CCN(c2cc3c(cc2F)c(=O)c(C(=O)O)cn3C2CC2)CC1)c1nc(-c2ccc(OC)cc2)cs1 = > 100 µM
CC(=O)Nc1ccc2c3c(cc(O)c2c1)N(C(=O)CCCC(=O)N1CC(CCl)c2c1cc(O)c1cc(NC(C)=O)ccc21)CC3CCl (centres undefined) = < 0.01 µM
Cc1cc(NC2=CC(=O)C(=O)c3ccccc32)no1 = 30.1 µM
CC1=NN(c2cccc(Cl)c2)C2(SCC(=O)N2c2nc3ccccc3s2)C1=CC=Cc1ccccc1 (centres undefined) = 68.6 µM

Requested read-out: TGI. Entry: CSC12c3cc(C)n(-c4ccc([N+](=O)[O-])cc4)c3CC(C)(C)CN1C(=O)C2Oc1ccccc1 (centres undefined)
> 100 µM

Would you mind doing COC(=O)[C@]12CC3C=CC1N(C3)C(CBr)c1c2n(S(=O)(=O)c2ccccc2)c2ccccc12 (some centres undefined) as well?
> 100 µM

// query: CCc1nc(N)nc(N)c1-c1ccc(Cl)c([N+](=O)[O-])c1
> 100 µM

Param item: CC1(C)OC2C(COC(c3ccccc3)(c3ccccc3)c3ccccc3)OC(c3c[nH]c4c(N)ncnc34)C2O1 (centres undefined)
18.9 µM

Could you do the same for CCN1CCC(O)(c2ccc(Oc3ccc(Cl)cc3)cc2)C(C(=O)c2ccc(Oc3ccc(Cl)cc3)cc2)C1 (centres undefined) , please?
34.3 µM

Same for O=C1Nc2c(ccc(Cl)c2Cl)/C1=C/c1cc(Br)c(O)c(Br)c1
> 100 µM

What do you get for CCOC(=O)C(C(=O)OCC)=C1SC(=Nc2ccccc2)C(=Nc2ccccc2)N1c1ccccc1 ?
> 100 µM

Let us now turn to CN(C)C(C1=C(O)C(c2ccccc2)N(c2ccccc2)C1=O)N1CCOCC1 (centres undefined)
> 10 µM

How about COc1cccc(/C=N/n2c(Cc3ccccc3)n[nH]c2=O)c1 ?
> 100 µM
